# protocol-notes: soluble on expression in E. coli; label from the status in PepcDB or PDB records
endpoint: soluble on expression in E. coli

1) MAEERHHTEHIPQWKKDEIENIKELIQSHKVFGMVRIEGILATKIQKIRRDLKDVAVLKVSRNTLTERALNQLGESIPEMTRYLDNQTALIFTNESPFKLYKLLEQTKTPSPIKAGAIAPEDIIVQKGPTSFPPGPILGELQSAGIPASIDAGKVAVKETKVVCKAGEAVPQKLATMLSKLEIYPLIVGLDLRAAYDDGTIYEPELLAVDESKYFSDIIRAAQNAFNLSVNTAYPTGATIGTLLAKAYAESKSLGVNAVILEPGVMDSLLAKAHVQMTSVASEAAEKDANAVDDDLREVLGAAASAAAAATVAAPAAEEEKKEEEPEEEEEDHAEEDGMAGLGALFGLEHHHHHH ... soluble
2) MSLNPYKIEVVDHTKLVESNTSINEKEEKSISSVEERANLYEDDEENDEEEDSNEFASEAIPFYSVLGEKDYFYFPSEQIQEHYSKRIPGYFMPNNYYCVNYDFTYNPVKKNVNGDEDDDDDEEEEEGDSGTDRKVKTQEKFRASFIFIDTWALMVGFPIIRNYRAFREQFNWLSKTLYESAKKSDWIFVVGHHPLISSGRRSDNYSYEEHSFHDIIRDFLFNYHVDAYFSAHDHLMEYIKFGSVDLFINGSSSRVLFDNSSMGRGYFGKIIGKLYPLSCYVLKTIHTGLKPKGCNINRYSKWYNKSDIGFSTHKLTKDELVTQFISSRTGKPLSEKIITKNKKHEREGHHHHHH ... soluble
3) MPNTLKRLIPDPEVIKLQQLLSSNGYFEEIKPSHGLFDGITFDNAVLFQLQHIYKDGDPLKPDGVIGAKTWWALKNPSGEKQRNHLSASIPAGLTTKRHQLIELIIEEHSKPVFEVPDGSNRSPDIDGYWGNTGVIGLAWCCAFVSWVLKEVTDSYPIASTHHLGVQRMWRTAKRLNMTTEIPKPGDIFVQLFAGGKGHTGFVVAVTEDGETIYTCEGNCGNRLKIGKRSNNSELHFIDCLQDNQTLDFERMAFDVNSTIDNTTRLEHHHHHH ... not soluble
4) DLILPFYKAGKVSFYQGDLDVLINFLEPDVLVNAANGDLRHVGGVARAIDVFTGGKLTKRSKEYLKSSKAIAPGNAVLFENVLEHLSVLNAVGPRNGDSRVEGKLCNVYKAIAKCDGKILTPLISVGIFKVKLEVSLQCLLKTVTDRDLNVFVYTDQERVTIENFFNG ... soluble
5) HHHHHHMQHLVLIGFMGSGKSSLAQELGLALKLEVLDTDMIISERVGLSVREIFEELGEDNFRMFEKNLIDELKTLKTPHVISTGGGIVMHENLKGLGTTFYLKMDFETLIKRLNQKEREKRPLLNNLTQAKELFEKRQALYEKNASFIIDARGGLNNSLKQVLQFIA ... soluble
6) MSLRFGNRKLRQQQALQYELEKNKAELEEYREELVSHFARSAELLDTMAHDYRQLYQHMAKSSSSLLPEMSAESNPFRNRLAESEASNDQAPVQMPRDYSEGASGLLRSGAKRDEGHHHHHH ... not soluble

----------
# protocol-notes: soluble on expression in E. coli; label from the status in PepcDB or PDB records
endpoint: soluble on expression in E. coli

1. MGSDKIHHHHHHMKITQIRNATLQLEFGGKTFLIDPMLAPKATYPGFPGTANDHLRNPLVELPLPMATILDVDAVIVTHTHLDHWDDAAIKAIPKTMPIFSQNAQDADLIRRAGFISVRVLGEQMEYDGITLIKTAGQHGSDETYANPQLAERLGEVCGIVFQHANEKSFYLAGDTVWNQHVIDVLTDYSPDVVALNIGNAFIPSFGSIIMGKEDVRRVHQLVPNAAIVATHMEAVNHCLLSRAELRDYLHEEKLQSIAHVPNDGESVQF ... not soluble
2. MRILGEKVRQFRKRKGMSQKELADGICTQATISLIEKKSKIPSMKIMMKICNRLGIRLSEVIIENDDQLYRTFKKIDTLIRHTQLEEAQDVFQHIRPKQLRSNTDKKQYYYYEGYLQLVLNDNADEAIFNFGMLLNQFVKSSHDMFAILATLGTGLAYERKQAYDKAEIFVKQAVATLHTMDAQAMPMGDDDYLQNEILIYASAAQLYAKINFPEEALELIDLALKKAQESQSLYLLDRLYAQKAANEVVLNNVQSAHDHYYVAYALSLVTHNSSLTEKITKEMAEYHIAPLQVANDA ... not soluble
3. MAAHGGSAASSALKGLIQQFTTITGASESVGKHMLEACNNNLEMAVTMFLDGGGIAEEPSTSSASVSTVRPHTEEEVRAPIPQKQEILVEPEPLFGAPKRRRPARSIFDGFRDFQTETIRQEQELRNGGAIDKKLTTLADLFRPPIDLMHKGSFETAKECGQMQNKWLMINIQNVQDFACQCLNRDVWSNEAVKNIIREHFIFWQVYHDSEEGQRYIQFYKLGDFPYVSILDPRTGQKLVEWHQLDVSSFLDQVTGFLGEHGQLDGLSSSPPKKCARSESLIDASEDSQLEAAIRASLQETHFDSTQTK ... not soluble
4. MGSDKIHHHHHHMDSNYTKAGYLTEPFKIFHLRDEHKLNIDFHYHDFHKILIHLHGNVSYCIEGRSYELKEHDIVLVNAGEVHKPILNDDSIYERIIIYVSQQLIDDYVSKGYDLACCFKQAYANQSHVLRLAATKGSRLADTIKGLDSTLRETNEYANELYQKLLFLEFLIQLNRITLHGGIEYINTFSSNKKIVEILDFLNKNLTNRISIDELADKFYMSRYHLMHTFKEETGCTIGSYITTKRLLLARDMIRDGSSVSAACDACGFGSYSSFIRAYRKQFHSTPTNT ... not soluble
5. MAHHHHHHMYAIADTDDILIRSNPCRLSVNGVHISVCNEDVVGDMRDRMVERWPTADGSLRRVVEALVNGRLYVPLYSLPVATADLKHLPHLRMDYVPSQNELLEIKPAAAALASSTATKGDRRGNADGSDATTSTSGASSSRGWETVFSVAEQPSTDMAAWLQHKVKRAKLEDAAGDNEEGDAASAPGGPVTPSTPTASSKTEYLPHIMFLPSTRPQFATVTHQSEEVDGADIDSAESASGVLVVNQEVWSTRSSPKFELRVAEVTIPNTDLVLRRGATSTNGVTCGVLHIYSA ... soluble
6. SLIKKVKIKKFNGRDFYDMEDYVAVEESYNIFINGEFVKSLSMSPNFLNEFAVGFAISEGFLNKIDKVEVDKNNINIFGEKNDREIKNNKNNKEIKIDIEIIKKIISYEIKAKYWEITGSFHWASMFDLKGNSIIFVEDIGRHNAVDKVIGYAILNNYNLNKLILRYSGRIPSDIVKKAINSGLNIIISKSPPTDKAIELAEENNILLIGFARNGKFNIYTSGRLWEE ... soluble
7. MGSDKIHHHHHHMKIIPVFLPYAGCKKRCVFCDQIKATGQAKVPSLDDIARIIEEYSRTSNEYELGFYGGTFTGLSEEKMEEYLRFVKRFPVVKSVRVSTRPDEINERKLKILKKYGVNVIEIGVQSFLDEVLERSKRGYTSEEAEGACKLIKKNGFVLSVHLMVGLPGSDRRGEILSALRTVECGADMVRIHPTLVFEGTELHRMMEEGEYTPLNVEEAVDVCSDLVCIFEGWGTKVIRIGYHVPVELRKYVVAGPIDPSLGDRVRRTTMKKVIESLKPSRIVVPKNYLVWFEEAKVEVGDEFRFDDLSYADALFFTGKEVVERWLNG ... not soluble
8. MGSDKIHHHHHHMRTPTCDITTHERWFGAFTAPYLEEGPEHVGPVRLKIEHTHHVLSNARSIVDSEDFSPLVQRAALLAALYHDTGRFPQYRRWRTFSDPRSVNHALLGGRTLREAGALDDEPVEVRRLVLGAVVMHNRFRVPSGIPDDARTVTDVVRDADKLDIFRVMAPHLAPGAERDKVVVLHVEDAPGKWSPVIVADVLAGRVASYADLRYVNDFRLLLGTWVRDLRFPASRRMLAASGLVENILSALPASDDIARARTRILSDLADAARGRGGA ... not soluble
9. MSLGQLLSHPIEEKELDYKSYTNLTYCIGSMQGYRMTMEDAHDVKINEHENLAVFGIFDGHGGKNCSQYLAEHLPKLVFTKLNKIASAVYLKQVKDIDLKDVFDILKNSFFKIDKDLSHHANMVNCGSTATVVTIIANYIVVANTGDSRCIVSRNGHAKPLSFDHKPSNMGERVRIENSNGYILNNRINEVLALSRAFGDFKFKLPYLSSSRNKYIKENQKLLGDKLITLPPELFQVTVEPDIMLYDMQKLDSPEFLVIACDGVWDCFKNGQLVKLIRDKLSLGWRLNKIVEYILNDSLTMANNYTGIGFDNMTLIIVAIHKEGHHHHHH ... soluble
10. AIAADSAVRGPPGMGGTSTDNMDSVVQGDRRPGSHKGFVEEMRFVAMRLHTRDQAKEGTLEESALPIQEWQPSQQDYLQFLVDSKHVYDFFENFMNQSQDNMFVNFRRTGLERVSALEEDLDWFRQRGFSIPKPEKPGVAYVEYLQSLVQDKPHALLCHWYNFYFAHTAGGRMIGRLMSKLLFDGHVFEFYKWEGDVKQILDQVRVKIDETARDWPREVKDECLKETGLSFSYSGTILGHLAKRG ... soluble

Source of measurements: the DeepSol protein solubility set
